test system: U-87 MG cells; conditions: half-maximal cytotoxic concentration
# VEEV (TC-83) CC50 listing for each entry below

{"chemicalStructure": "COc1ccc(-c2cnc3c(C#Cc4cccnc4)snc3c2)cc1OC", "testedTarget": "U-87 MG cells", "VEEV (TC-83) CC50": ">10 µM"}
{"chemicalStructure": "NC(=O)c1ccc(-c2cnc3c(C#Cc4cccnc4)snc3c2)cc1", "testedTarget": "U-87 MG cells", "VEEV (TC-83) CC50": ">20 µM"}
{"chemicalStructure": "COC(=O)c1cncc(C#Cc2snc3cc(-c4ccc(OC)c(OC)c4)cnc23)c1", "testedTarget": "U-87 MG cells", "VEEV (TC-83) CC50": ">10 µM"}

VEEV (TC-83) CC50 for COc1cc(-c2cnc3c(C#Cc4cccnc4)snc3c2)ccc1C(=O)O is >10 µM

----------
# log10 Kd listing for each entry below
Target: PIP4K2C (Homo sapiens, UniProt Q8TBX8)
Sequence (Q8TBX8 1-421): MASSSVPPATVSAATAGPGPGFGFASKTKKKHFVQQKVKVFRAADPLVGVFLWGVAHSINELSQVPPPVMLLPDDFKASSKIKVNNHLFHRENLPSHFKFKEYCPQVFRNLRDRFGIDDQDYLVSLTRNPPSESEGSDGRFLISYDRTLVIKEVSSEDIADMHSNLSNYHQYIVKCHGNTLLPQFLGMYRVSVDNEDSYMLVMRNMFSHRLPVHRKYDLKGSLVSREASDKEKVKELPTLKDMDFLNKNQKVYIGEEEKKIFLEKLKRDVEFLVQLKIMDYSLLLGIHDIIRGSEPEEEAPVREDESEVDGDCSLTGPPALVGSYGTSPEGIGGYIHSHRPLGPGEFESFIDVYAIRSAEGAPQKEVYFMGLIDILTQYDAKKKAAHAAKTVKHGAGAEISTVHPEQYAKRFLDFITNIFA
Test: PIP4K2C binding assay (DiscoverX/Kinome platform)
Parameter value (number): base-10 log of Kd in nM.

Here's what some known entries look like.
{"chemicalStructure": "COc1ccncc1C#Cc1snc2cc(-c3ccc(OC)c(OC)c3)cnc12", "log10 Kd": 2.36}
{"chemicalStructure": "COc1cc(-c2cnc3c(C#Cc4cccnc4)snc3c2)ccc1N", "log10 Kd": 1.64}
{"chemicalStructure": "COc1cncc(C#Cc2snc3cc(-c4ccc(OC)c(OC)c4)cnc23)c1", "log10 Kd": 1.59}
{"chemicalStructure": "COc1ccc(-c2cnc3c(C#Cc4cnc5ccccc5c4)snc3c2)cc1OC", "log10 Kd": 3.30}
{"chemicalStructure": "COc1ccc(-c2cnc3c(C#Cc4ccccc4F)snc3c2)cc1OC", "log10 Kd": 2.45}
{"chemicalStructure": "COc1cccc(-c2cnc3c(C#Cc4cccnc4)snc3c2)c1", "log10 Kd": 2.28}
{"chemicalStructure": "COc1cc(-c2cnc3c(C#Cc4cccnc4)snc3c2)ccc1C(=O)O", "log10 Kd": 1.83}

Next up:
log10 Kd for COCCNC(=O)c1cccc(-c2cnc3c(C#Cc4cccnc4)snc3c2)c1 is 1.48

----------
target: UniProtKB Q8TBX8; assay: PIP4K2C binding assay (DiscoverX/Kinome platform)
# Kd listing for each entry below
// units = nM; emit number, no label

Here's what some known entries look like.
{"chemicalStructure": "COc1ccc(-c2cnc3c(C#Cc4cncc(F)c4)snc3c2)cc1OC", "readingUnit": "nM", "Kd": 110}
{"chemicalStructure": "NC(=O)c1ccc(-c2cnc3c(C#Cc4cccnc4)snc3c2)cc1", "readingUnit": "nM", "Kd": 41}

Next up:
Kd for Clc1cccc(-c2cnc3c(C#Cc4cccnc4)snc3c2)c1 is 180
